assay: reduction of polyQ htt aggregates in cells – imaging, exon1htt(103Q)mCFP cells, high-content imaging, primary screen (AID 483); settings: exon1htt(103Q)mCFP cell line, aggregate imaging, at 2 µM; measured here: cell count, toxicity;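 also: compound exposure lasted 3 days before fixation; percent of the per-plate median nuclei count of sample wells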
Exercise: for every item that follows, state its recorded nuclei count.
The reply should be a number in %, with the unit left off.

Measured nuclei count of `O=C(Nc1ccc(S(=O)(=O)N2CCCCCC2)cc1)c1ccco1` : 105

Summary for this compound, `CCCS(=O)(=O)C(=C1Nc2ccccc2N1)S(=O)(=O)CCC` : nuclei count is 119

Per the records, this compound ( `Cc1noc(C)c1C(=O)N1CCN(C(=O)c2sc3cc(Cl)ccc3c2Cl)CC1` ) has nuclei count equal to 111

Recorded result, Cc1ccc(/C(O)=C2\C(=O)C(=O)N(CCCN(C)C)C2c2ccccn2)cc1 (configuration not stated) , nuclei count: 98.9

Documented nuclei count of `CCCn1c(SCC(=O)NC(C)(C)C)nnc1C(C)C` : 102

Field nuclei count (entry `CC(C)CCn1c(N)c(S(=O)(=O)c2cccs2)c2nc3ccccc3nc21` ) reads 105

// `CCCn1c(=O)c(C(=O)NCc2ccccn2)c(O)c2ccccc21` : nuclei count value = 111

Per the record, `CCCCOc1ccccc1NC(=O)c1ccco1` has nuclei count of 91.7

The reported nuclei count of the compound O=C(O)c1ccc(C2SCC(=O)N2Cc2ccccc2)cc1 (configuration not stated) was 57.9

Entry `O=C(NCc1cccnc1)c1ccc(Cl)c(Cl)c1` — recorded nuclei count = 102

Lab note: `COc1ccc(-c2nnc(SCC(=O)N3CCOCC3)o2)cc1OC` gave nuclei count of 86.5

Noted for CCOc1ccccc1NC(=O)N1C2CCCC1CC(NC(=O)C1CC1)C2 (configuration not stated) : its nuclei count reads 110

Per the records, this compound ( `CCSc1nc2ccccc2n1CCC(=O)O` ) has nuclei count equal to 85.7

Memo: `CSc1c(CC(=O)NCCO)n(C)c2ccccc12` , reported nuclei count: 88

// recorded nuclei count for `Cc1nc2c3cnn(-c4ccccc4)c3ncn2n1` : 105

For record Nc1nc2n(n1)C(c1cccc(Cl)c1)CC(c1ccc(F)cc1)N2 (configuration not stated) the listed nuclei count is 100

// nuclei count value for `CCCN(S(=O)(=O)c1ccc(OCC)cc1)S(=O)(=O)c1cccs1` : 109

// `CC(C)COc1ccc(C(=O)OCCN2CCOCC2)cc1` : nuclei count value = 108

`COCCCNC(=O)CCCn1c(=O)c2ccccc2n(CC(=O)Nc2c(C)cccc2C)c1=O` has a reported nuclei count of 105

Item: O=C(CC(Cc1ccccc1)C(=O)O)NCCc1ccc2c(c1)OCO2 (configuration not stated) | nuclei count: 107

Lab note: `COc1ccccc1-n1c(SCC(N)=O)nnc1-c1ccccc1` gave nuclei count of 106

// field: nuclei count; key: `Cn1c(=O)oc2cc(S(=O)(=O)NC3CCN(Cc4ccccc4)CC3)ccc21` ; value = 70.5

Short answer for `CCOC(=O)c1ccc(NC(=O)CCNc2c(N3CCCC3)c(=O)c2=O)cc1` : nuclei count was 70.7

compound `CSc1nsc(SCC(=O)N2CCc3ccccc32)n1` , nuclei count observed: 83.6

nuclei count for `CN=C1CC(C)(C)CC(=O)/C1=C(/O)CCC(=O)NC` is 104

What the record says about `CCOC(=O)Cn1ncc(-c2ccccc2)c1N` : nuclei count is 67.2

The measured nuclei count associated with `CCC(=O)Oc1ccc(C/C(=N\O)c2ccc(O)cc2O)o1` reads 95.9

GET /value?item= `CC(=O)Nc1c(O)[nH]c2ccccc12` &field=nuclei count returns 98.9

// nuclei count value for CCc1ccccc1NC(=O)C(C#N)Cc1cccnc1 (configuration not stated) : 100

Record `O=C(COc1nnc2ccccn12)N1CCN(S(=O)(=O)c2ccccc2)CC1` , field nuclei count: 95.4

Entry COC(=O)C1CCN(C(=O)CN2C(=O)NC(CCc3ccccc3)C2=O)CC1 (configuration not stated) — recorded nuclei count = 95.7

The compound listed as CC(CCc1ccccc1)NC(=O)c1ccc(Br)o1 (configuration not stated) shows nuclei count equal to 83.4

compound COc1ccc(S(=O)(=O)NCC(c2cccnc2)N2CCN(C)CC2)cc1C (configuration not stated) , nuclei count observed: 84.8

The measured nuclei count associated with `COc1ccc2cc(C#N)c(N3CCN(Cc4nnnn4CCC(C)C)CC3)nc2c1` reads 85.8

Per the record, `COc1cc2c(cc1NC(=O)CSc1nnc(Cc3cccs3)n1C)oc1ccccc12` has nuclei count of 104

Item: `CSc1ccc(-c2cc(=O)c3ccccc3o2)cc1` | nuclei count: 8.7

Notebook: `Cc1cc2oc(=O)cc(CN3CCCCC3)c2cc1C(C)C` , nuclei count read as 91.1

So for `CC1CCN(C(=O)c2cc(-c3ccc(Cl)c(Cl)c3)on2)CC1` , the logged nuclei count turned out to be 94

Note to self: nuclei count recorded for `c1ccc2c(c1)C(=Nn1cnnc1)c1ccccc1-2` was 101

Query `O=S(=O)(c1ccc(F)cc1)N1CCC(N2CCCC2)CC1` yields nuclei count of 107

Please fill in: nuclei count reported for COCCCNC(=O)C(Cc1ccccc1)NS(=O)(=O)c1ccc2c(c1)c(=O)n(C)c(=O)n2C (configuration not stated) = 94.5

Record summary for CC12C(=O)N(CCC(=O)O)C(=O)C1C1C=CC2C1 (configuration not stated) : reported nuclei count = 99.2

Record CC(Sc1n[nH]c(=O)[nH]c1=O)C(=O)OCc1ccccc1 (configuration not stated) . Reported nuclei count: 89.4

What the record says about CCC(C)NC(=O)CCNS(=O)(=O)c1ccc(Br)cc1 (configuration not stated) : nuclei count is 66.3

Notebook: `Nn1c(SCC(=O)Nc2ccccc2)nnc1-c1cccnc1` , nuclei count read as 126

Kindly note the recorded nuclei count for CC(Sc1nnnn1-c1ccccc1)C(=O)Nc1ccc(Cl)cn1 (configuration not stated) , which is 108

nuclei count measured on COc1cc(NC(=O)C2CC(c3cccc(OC)c3OC)=NO2)cc(OC)c1OC (configuration not stated) = 76.9
